Biological target: T1, Human Scribble (SCRIB) PDZ3 domain (1002-1094) (human, UniProt Q14160 1002-1094)
T1 sequence (looked up): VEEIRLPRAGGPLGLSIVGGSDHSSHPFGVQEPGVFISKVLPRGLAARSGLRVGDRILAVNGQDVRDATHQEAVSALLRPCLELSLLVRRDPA
Assay: ITC
Settings: both partners purified
endpoint.name: Kd (µM)
Your answer should be a plain number; it is taken to be in µM.

Data request: Look at this binder and give its reported Kd. LRLESSII [TBEV NS5_CTN peptide (C-terminal PBM of NS5)]
Data returned: 18.4

Provenance of the data: paper PMC9317960
